Attribution: ChEMBL document CHEMBL1128722

biological target: Chymotrypsin-like elastase family member 2A (Sus scrofa); assay: The second order inactivation rate constant expressed as inhibition of porcine pancreatic elastase (PPE).Inhibitor concentrations were 0.04-2.0 mM
reported_endpoint: K obs / 1 (M⁻¹ s⁻¹)

• CC(Br)COc1oc(=O)c2cc([N+](=O)[O-])ccc2c1Cl (stereo not given) = 1060
• CC(C)(C)NC(=O)Nc1ccc2c(Cl)c(OCCBr)oc(=O)c2c1 = 6600
• C[C@@H](NC(=O)Nc1ccc2c(Cl)c(OCCBr)oc(=O)c2c1)c1cccc2ccccc12 = 20
• Nc1ccc2c(Cl)c(OCCBr)oc(=O)c2c1 = 1000
• CC(C)(C)CC(=O)Nc1ccc2c(Cl)c(OCCBr)oc(=O)c2c1 = 3650
• O=C(Nc1ccccc1)Nc1ccc2c(Cl)c(OCCBr)oc(=O)c2c1 = 36
• O=C(Cc1ccccc1)Nc1ccc2c(Cl)c(OCCCBr)oc(=O)c2c1 = 28
• CC(C)NC(=O)Nc1ccc2c(Cl)c(OCCBr)oc(=O)c2c1 = 4470
• COC(=O)CCCC(=O)Nc1ccc2c(Cl)c(OCCBr)oc(=O)c2c1 = 2730
• O=C(Nc1ccccc1)Nc1ccc(C(=O)NC(Cc2ccccc2)C(=O)Nc2ccc3c(Cl)c(OCCBr)oc(=O)c3c2)cc1 (stereo not given) = 130

----------
molecular target: Cathepsin G (Homo sapiens) (UniProt P08311); assay: Inhibition of cathepsin G at 35-710 uM
Sequence (P08311 whole entry): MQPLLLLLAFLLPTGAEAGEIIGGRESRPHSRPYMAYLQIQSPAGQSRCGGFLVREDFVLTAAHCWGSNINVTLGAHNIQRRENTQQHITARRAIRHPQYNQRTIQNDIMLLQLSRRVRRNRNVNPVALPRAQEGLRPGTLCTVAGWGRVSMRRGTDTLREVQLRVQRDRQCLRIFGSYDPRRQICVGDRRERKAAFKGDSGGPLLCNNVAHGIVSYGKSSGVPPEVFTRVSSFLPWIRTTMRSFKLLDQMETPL
In this section, each of the compounds is paired with its reported K obs / 1.
reported_endpoint: K obs / 1 (M⁻¹ s⁻¹)

- C[C@H](NC(=O)Nc1ccc2c(Cl)c(OCCBr)oc(=O)c2c1)c1ccccc1: 77
- CC(Br)COc1oc(=O)c2cc([N+](=O)[O-])ccc2c1Cl (centres undefined): 1660
- CC(Br)COc1oc(=O)c2cc(N)ccc2c1Cl (centres undefined): 150
- CC(C)(C)CC(=O)Nc1ccc2c(Cl)c(OCCBr)oc(=O)c2c1: 240
- C[C@H](NC(=O)OC(C)(C)C)C(=O)N[C@@H](C)C(=O)Nc1ccc2c(Cl)c(OCCBr)oc(=O)c2c1: 46
- O=C(O)c1ccc(N/C(S)=N/c2ccc3c(Cl)c(OCCBr)oc(=O)c3c2)cc1: 450
- CC(C)(C)NC(=O)Nc1ccc2c(Cl)c(OCCBr)oc(=O)c2c1: 56
- CC(C)NC(=O)Nc1ccc2c(Cl)c(OCCBr)oc(=O)c2c1: 77
- CC(=O)Nc1ccc2c(Cl)c(OCCCBr)oc(=O)c2c1: 170
- O=c1oc(OCCBr)c(Cl)c2ccc(N[N+](=O)[O-])cc12: 710
- O=c1oc(OCCBr)c(Cl)c2ccc(NC(=S)Nc3ccccc3)cc12: 200
- Nc1ccc2c(Cl)c(OCCBr)oc(=O)c2c1: 410
- O=C(O)c1cccc(N/C(S)=N/c2ccc3c(Cl)c(OCCBr)oc(=O)c3c2)c1: 320
- O=C(Cc1ccccc1)Nc1ccc2c(Cl)c(OCCBr)oc(=O)c2c1: 70

----------
# reported K obs / 1; entries follow
molecular target: Neutrophil elastase (Homo sapiens) (UniProt P08246); assay: The second order inactivation rate constant expressed as inhibition of human leukocyte elastase (HLE). Inhibitor concentrations were 0.07-710 uM
Sequence (P08246 whole entry): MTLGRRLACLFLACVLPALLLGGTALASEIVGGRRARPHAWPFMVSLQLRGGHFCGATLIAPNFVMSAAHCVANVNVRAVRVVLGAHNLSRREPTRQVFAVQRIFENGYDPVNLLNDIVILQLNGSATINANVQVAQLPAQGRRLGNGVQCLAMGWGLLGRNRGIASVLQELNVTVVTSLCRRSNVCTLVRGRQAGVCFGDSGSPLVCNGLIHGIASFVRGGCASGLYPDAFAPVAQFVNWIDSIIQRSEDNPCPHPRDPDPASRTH
reported_endpoint: K obs / 1 (M⁻¹ s⁻¹)

* O=C(Nc1ccc2c(Cl)c(OCCBr)oc(=O)c2c1)NC(c1ccccc1)c1ccccc1 | 4410
* O=C(NCc1ccccc1)Nc1ccc2c(Cl)c(OCCCBr)oc(=O)c2c1 | 15600
* Cc1cccc(C(=O)N[C@@H](Cc2ccccc2)C(=O)Nc2ccc3c(Cl)c(OCCBr)oc(=O)c3c2)c1 | 31000
* O=C(Nc1ccccc1)Nc1cccc(C(=O)NC(Cc2ccccc2)C(=O)Nc2ccc3c(Cl)c(OCCBr)oc(=O)c3c2)c1 (centres undefined) | 21000
* C[C@H](NC(=O)OC(C)(C)C)C(=O)N[C@@H](C)C(=O)Nc1ccc2c(Cl)c(OCCBr)oc(=O)c2c1 | 230000
* CC(C)(C)OC(=O)N[C@H](Cc1ccccc1)C(=O)Nc1ccc2c(Cl)c(OCCCBr)oc(=O)c2c1 | 1480
* O=C(Cc1ccccc1)Nc1ccc2c(Cl)c(OCCCBr)oc(=O)c2c1 | 32400
* O=C(Cc1ccccc1)Nc1ccc2c(Cl)c(OCCBr)oc(=O)c2c1 | 480000
